tested on: HCT-116; assay: Antiproliferative activity against human HCT116 cells after 48 hrs by Hoechst 33342 staining-based assay; assay type: functional, cell-based; details: HCT-116, 48 h
Quick reference: IC50 of the listed items.
outcome_measure: IC50

INSERT INTO assay_data (molecule_smiles, outcome_measure, result) VALUES
  ('CC(=O)O[C@H]1C(=O)[C@@]2(C)[C@H]([C@H](OC(=O)c3ccccc3)[C@]3(O)C[C@H](OC(=O)[C@H](O)[C@@H](NC(=O)c4ccccc4)c4ccccc4)C(C)=C1C3(C)C)[C@]1(OC(C)=O)CO[C@@H]1C[C@@H]2O', 'IC50', '< 0.001 µM'),
  ('CCOC(=O)c1ccc(-c2ccc(OCC)nn2)cc1', 'IC50', '> 25 µM'),
  ('CCN(CC)c1ccc(-c2ccc(C(=O)OC)cc2)nn1', 'IC50', '0.06 µM'),
  ('CCOC(=O)c1cccc(-c2ccc(N(CC)CC)nn2)c1', 'IC50', '> 25 µM'),
  ('c1cncc(-c2ccc(N3CCOCC3)nn2)c1', 'IC50', '> 25 µM'),
  ('CCN(CC)c1ccc(-c2ccc(C#N)cc2)nn1', 'IC50', '> 25 µM'),
  ('Cc1cccc(-c2ccc(N3CCOCC3)nn2)c1', 'IC50', '> 25 µM'),
  ('CCOC(=O)c1ccc(-c2ccc(N3CCOCC3)nn2)cc1', 'IC50', '> 25 µM'),
  ('FC(F)(F)c1cccc(-c2ccc(N3CCOCC3)nn2)c1', 'IC50', '> 25 µM'),
  ('c1ccc2nc(-c3ccc(N4CCOCC4)nn3)ccc2c1', 'IC50', '> 25 µM'),
  ('CCOC(=O)c1ccc(-c2ccc(OC(C)C)nn2)cc1', 'IC50', '> 25 µM');
